Here we gather pKi data for UniProt:P35367 reported by several publications.
pKi: −log10 of the molar value.

Worked cases, pKi given:
# get_value(readout= pKi, system= UniProt:P35367) for Clc1ccc(C(=C2CCN(CCCCc3c[nH]cn3)CC2)c2ccccn2)cc1
8.70

# get_value(readout= pKi, system= UniProt:P35367) for COC(=O)c1ccc(COCCN2CCN(c3nc(N)nc4c3CCc3cc(OCc5ccc(Cl)cc5)ccc3-4)CC2)o1
> 7.00

# get_value(readout= pKi, system= UniProt:P35367) for CN1CCN(c2nc(N)nc3c2CCc2cc(OCC4CCOCC4)ccc2-3)CC1
6.30 to 7.00

# get_value(readout= pKi, system= UniProt:P35367) for COc1cc(OC(F)(F)F)ccc1COc1ccc2c(c1)CCc1c-2nc(N)nc1N1CCN(CCO[C@H]2C[C@@H](C(=O)O)C2)CC1
> 7.00

# get_value(readout= pKi, system= UniProt:P35367) for Nc1nc2c(c(N3CCN(CCOCC4(O)CCC(C(=O)O)CC4)CC3)n1)CCc1cc(OCc3ccc(Cl)cc3)ccc1-2 (stereo not shown)
> 7.00

Further cases:
# get_value(readout= pKi, system= UniProt:P35367) for CC(c1nccs1)c1c(CCN(C)C)sc2ccccc12 (stereo not shown)
≥ 6.00

# get_value(readout= pKi, system= UniProt:P35367) for O=C(CCN1CCC(Cc2c[nH]cn2)CC1)Nc1cccc(Cl)c1
6.48

# get_value(readout= pKi, system= UniProt:P35367) for CN1CCN(c2nc(N)nc3c2CCOc2cc(OCc4ccccc4)ccc2-3)CC1
> 7.00

# get_value(readout= pKi, system= UniProt:P35367) for CCOc1nccnc1C(C)C1=C(CCN(C)C)Cc2cc(F)ccc21 (stereo not shown)
≥ 6.60

# get_value(readout= pKi, system= UniProt:P35367) for CNCCc1sc2ccccc2c1[C@@H](C)c1ccccn1
≥ 6.00

# get_value(readout= pKi, system= UniProt:P35367) for CN(C)CCc1sc2ccccc2c1Cc1nccn1C
≥ 6.00

# get_value(readout= pKi, system= UniProt:P35367) for CC(C)(C(=O)O)c1ccc(OCCN2CCN(c3nc(N)nc4c3CCc3cc(OCc5ccc(Cl)cc5)ccc3-4)CC2)cc1
6.30 to 7.00

# get_value(readout= pKi, system= UniProt:P35367) for Nc1nc2c(c(N3CCN(CCOCC4CNC4)CC3)n1)CCc1cc(OCc3ccc(OC(F)(F)F)cc3)ccc1-2
> 7.00

# get_value(readout= pKi, system= UniProt:P35367) for Nc1nc2c(c(N3CCN(CCOC[C@H]4C[C@H](C(=O)O)O4)CC3)n1)CCc1cc(OCc3ccc(OC(F)(F)F)cc3)ccc1-2 (relative stereo)
> 7.00

# get_value(readout= pKi, system= UniProt:P35367) for CCOC(=O)C1(C#N)CCC(COCCN2CCN(c3nc(N)nc4c3CCc3cc(OCc5ccc(Cl)cc5)ccc3-4)CC2)CC1 (stereo not shown)
> 7.00

# get_value(readout= pKi, system= UniProt:P35367) for CC(C1=C(CCN(C)C)Cc2ccccc21)c1nnc(-c2ccccc2)s1 (stereo not shown)
≥ 6.60

###

Here we gather pKi data for Histamine H1 receptor (Homo sapiens, UniProt P35367) reported by several publications.
pKi: −log10 of the molar value.

Please look up its pKi: COc1nccnc1[C@H](C)C1=C(CCN(C)C)Cc2cc(Cl)ccc21
≥ 6.60

Please look up its pKi: N#CC1(C(=O)O)CCC(COCCN2CCN(c3nc(N)nc4c3CCc3cc(OCc5ccc(Cl)cc5)ccc3-4)CC2)CC1 (centres unmarked)
> 7.00

Further cases:
Please look up its pKi: CCC(C1=C(CCN(C)C)Cc2cc(F)ccc21)c1nccnc1OC (centres unmarked)
≥ 6.60

Please look up its pKi: Clc1cc(Cl)cc(CN2CCc3ccc(N4CCOCC4)cc3C2)c1
5.88

Please look up its pKi: CN(C)CCC1=C(C(C)(C)c2cnccn2)c2ccccc2C1
≥ 6.60

Please look up its pKi: NC(=O)N1CC(COCCN2CCN(c3nc(N)nc4c3CCc3cc(OCc5ccc(OC(F)(F)F)cc5)ccc3-4)CC2)C1
> 7.00

Please look up its pKi: Nc1nc2c(c(N3CCN(CCOCC4CC(C(=O)O)C4)CC3)n1)CCc1cc(OCc3ccc(Cl)cc3)ccc1-2 (centres unmarked)
> 7.00

Please look up its pKi: COC(=O)C1CN(C(=O)OCCN2CCN(c3nc(N)nc4c3CCc3cc(OCc5ccc(Cl)cc5)ccc3-4)CC2)C1
> 7.00

Please look up its pKi: CN1CCN(c2nc(NCc3ccco3)c3cc(Cl)ncc3n2)CC1
> 6.00

Please look up its pKi: C[C@H](c1cncs1)c1c(CCN(C)C)sc2ccccc12
≥ 6.00

Please look up its pKi: CC(c1ncccc1F)c1c(CCN(C)C)sc2ccccc12 (centres unmarked)
≥ 6.00

Please look up its pKi: CC(Oc1ccc2c(c1)CCc1c-2nc(N)nc1N1CCN(CCO[C@H]2C[C@@H](C(=O)O)C2)CC1)c1ccc(OC(F)(F)F)cc1 (relative stereo)
> 7.00

Please look up its pKi: CCOc1nccnc1CC1=C(CCN(C)C)Cc2ccccc21
≥ 6.60
